target: UniProtKB P11712
Sequence (P11712 whole entry): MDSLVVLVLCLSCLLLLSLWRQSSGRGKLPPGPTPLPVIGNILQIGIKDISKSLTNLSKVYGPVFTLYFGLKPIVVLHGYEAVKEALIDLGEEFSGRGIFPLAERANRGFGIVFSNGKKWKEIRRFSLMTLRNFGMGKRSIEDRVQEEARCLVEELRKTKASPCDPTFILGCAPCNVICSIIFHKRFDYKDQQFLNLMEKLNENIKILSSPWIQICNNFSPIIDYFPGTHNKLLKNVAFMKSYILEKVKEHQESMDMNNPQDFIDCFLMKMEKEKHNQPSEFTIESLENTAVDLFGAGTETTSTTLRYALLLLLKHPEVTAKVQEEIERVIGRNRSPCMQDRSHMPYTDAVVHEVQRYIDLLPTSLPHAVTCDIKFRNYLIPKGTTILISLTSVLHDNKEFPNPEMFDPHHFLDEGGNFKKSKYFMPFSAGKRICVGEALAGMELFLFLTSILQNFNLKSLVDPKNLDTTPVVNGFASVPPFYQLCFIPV
Measured Endpoint: pIC50
Answers are plain numbers, as −log10 of the molar value.

API: value(readout=pIC50, system=UniProtKB P11712) for record CCCNC(=O)c1ccc(CN(C)C(=O)c2cc(C(C)C)c(O)cc2O)cc1 5.28

* * *

biological target: Heat shock protein HSP 90-alpha (Homo sapiens); test: Inhibition of FITC-geldanamycin binding to N-terminal domain of recombinant full-length HSP90alpha (unknown origin) after 16 hrs by fluorescence polarization assay
Measured Endpoint: pIC50
Numbers only, as −log10 of the molar value.

See these solved cases before continuing.
So what does the record say about pIC50 for CNC(=O)c1ccc(CN(C)C(=O)c2cc(C(C)C)c(O)cc2O)cc1 ? 7.94

So what does the record say about pIC50 for CCCNC(=O)c1ccc(CN(C)C(=O)c2cc(C(C)C)c(O)cc2O)cc1 ? 8.28

Query molecule follows.
So what does the record say about pIC50 for CNC(=O)c1ccc(CN(C)C(=O)c2cc(Cl)c(O)cc2O)cc1 ? 6.30

* * *

biological target: Cytochrome P450 2D6 (Homo sapiens)
Sequence (P10635 whole entry): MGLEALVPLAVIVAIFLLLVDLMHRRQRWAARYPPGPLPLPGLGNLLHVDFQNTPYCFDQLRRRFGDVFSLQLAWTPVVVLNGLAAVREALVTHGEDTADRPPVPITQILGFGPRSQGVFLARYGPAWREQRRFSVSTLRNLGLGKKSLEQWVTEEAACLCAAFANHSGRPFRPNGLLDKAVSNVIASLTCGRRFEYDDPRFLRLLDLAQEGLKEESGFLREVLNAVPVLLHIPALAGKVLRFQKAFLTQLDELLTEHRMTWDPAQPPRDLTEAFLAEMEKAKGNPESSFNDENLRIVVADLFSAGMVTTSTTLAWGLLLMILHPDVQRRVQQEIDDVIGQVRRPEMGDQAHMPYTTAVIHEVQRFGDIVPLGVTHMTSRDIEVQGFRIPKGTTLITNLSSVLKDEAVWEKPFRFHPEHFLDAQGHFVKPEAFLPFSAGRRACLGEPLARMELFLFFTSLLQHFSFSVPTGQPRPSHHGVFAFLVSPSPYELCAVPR
Measured Endpoint: pIC50
One number for each entry, as −log10 of the molar value.

So what does the record say about pIC50 for CCCNC(=O)c1ccc(CN(C)C(=O)c2cc(C(C)C)c(O)cc2O)cc1 ? 4.64

* * *

Target sequence: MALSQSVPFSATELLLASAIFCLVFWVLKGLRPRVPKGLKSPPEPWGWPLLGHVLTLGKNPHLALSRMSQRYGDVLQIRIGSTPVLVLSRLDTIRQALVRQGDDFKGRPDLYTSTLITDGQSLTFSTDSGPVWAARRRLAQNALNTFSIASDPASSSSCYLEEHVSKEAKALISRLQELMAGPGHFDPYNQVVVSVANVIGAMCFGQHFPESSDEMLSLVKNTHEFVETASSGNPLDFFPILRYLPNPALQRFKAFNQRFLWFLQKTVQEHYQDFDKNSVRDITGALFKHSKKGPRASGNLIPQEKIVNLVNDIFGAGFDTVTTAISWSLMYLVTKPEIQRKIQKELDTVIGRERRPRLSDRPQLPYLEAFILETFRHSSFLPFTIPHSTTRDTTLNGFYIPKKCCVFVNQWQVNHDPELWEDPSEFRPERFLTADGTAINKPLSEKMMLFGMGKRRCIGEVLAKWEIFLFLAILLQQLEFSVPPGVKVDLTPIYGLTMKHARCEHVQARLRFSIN
Measured Endpoint: IC50 (µM)
One number for each entry, in µM.

So what does the record say about IC50 for CCCNC(=O)c1ccc(CN(C)C(=O)c2cc(C(C)C)c(O)cc2O)cc1 ? 34.1

* * *

target: CYP3A (Homo sapiens, UniProt P08684+P20815+P24462+Q9HB55); assay: Inhibition of CYP3A in human pooled human liver microsomes using midazolam as substrate assessed as midazolam 1'-hydroxylation preincubated for 5 mins followed by NADPH addition measured after 15 mins by LC-MS/MS analysis; type: ADME; settings: probe midazolam
Measured Endpoint: IC50 at 15 min (µM)
One number for each entry, in µM.

So what does the record say about IC50 at 15 min for CCCNC(=O)c1ccc(CN(C)C(=O)c2cc(C(C)C)c(O)cc2O)cc1 ? 25.9

* * *

target: Cytochrome P450 2C19 (Homo sapiens, UniProt P33261)
Sequence (P33261 whole entry): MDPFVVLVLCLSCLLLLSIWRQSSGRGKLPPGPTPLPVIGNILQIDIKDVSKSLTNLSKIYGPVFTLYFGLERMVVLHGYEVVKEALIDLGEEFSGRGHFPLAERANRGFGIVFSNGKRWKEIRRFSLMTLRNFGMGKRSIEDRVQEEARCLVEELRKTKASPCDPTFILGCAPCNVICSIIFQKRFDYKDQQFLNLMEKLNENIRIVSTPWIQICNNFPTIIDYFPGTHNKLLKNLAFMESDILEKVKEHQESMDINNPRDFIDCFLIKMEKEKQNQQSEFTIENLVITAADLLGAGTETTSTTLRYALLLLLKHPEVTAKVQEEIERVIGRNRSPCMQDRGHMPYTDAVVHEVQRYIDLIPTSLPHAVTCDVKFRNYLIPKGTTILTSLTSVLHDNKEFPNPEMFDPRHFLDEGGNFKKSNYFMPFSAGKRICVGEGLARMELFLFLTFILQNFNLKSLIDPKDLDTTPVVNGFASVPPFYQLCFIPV
Measured Endpoint: pIC50
One number for each entry, as −log10 of the molar value.

So what does the record say about pIC50 for CCCNC(=O)c1ccc(CN(C)C(=O)c2cc(C(C)C)c(O)cc2O)cc1 ? 4.84
